Data provenance: patent US5328909A

biological target: m-calpain (Rattus norvegicus); construct: m-calpain was purified from rat brain; from tissue; host or cells: rat brain; assay: Thiol protease inhibitory activity against m-calpain purified from rat brain; assay type: biochemical
Measurement Kind: pIC50
# reply with the number alone; pIC50 is -log10 of concentration in mol/L

Q: Requested read-out pIC50, target or system m-calpain (Rattus norvegicus), entry CCCC[C@H](NC(=O)[C@H](CC(C)C)NC(=O)OCC1CCCCC1)C(O)c1c(-c2ccc([Si](C)(C)C)o2)c1=O (stereo partly drawn)
A: 5.25

Q: Requested read-out pIC50, target or system m-calpain (Rattus norvegicus), entry CCCC[C@H](NC(=O)[C@H](CC(C)C)NC(=O)OCC1CCCCC1)C(O)c1c(-c2ccc([Si](C)(C)C)s2)c1=O (stereo partly drawn)
A: 4.96

Q: Requested read-out pIC50, target or system m-calpain (Rattus norvegicus), entry CC(C)C[C@H](NC(=O)Oc1ccccc1)C(=O)N[C@@H](C(C)C)[C@@H](O)c1c(-c2ccccc2)c1=O
A: 6.08

====

Give measured IC50 for each item. Keep answers brief.
molecular target: cathepsin L (Rattus norvegicus); construct: Capthesin L was purified from rat kidney; from tissue; host or cells: rat kidney; experiment: Thiol protease inhibitory activity against cathepsin L purified from rat kidney; assay type: biochemical; details: Table 3; rat kidney enzyme; read-out: IC50 (μM) cathepsin L
Sequence (P07154 114-288 limits assumed): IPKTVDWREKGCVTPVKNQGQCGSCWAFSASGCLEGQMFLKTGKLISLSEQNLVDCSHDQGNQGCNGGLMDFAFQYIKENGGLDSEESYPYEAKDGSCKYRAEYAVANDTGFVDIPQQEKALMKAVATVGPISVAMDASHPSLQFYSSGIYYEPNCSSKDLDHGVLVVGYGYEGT
Sequence (P07154 291-334 limits assumed): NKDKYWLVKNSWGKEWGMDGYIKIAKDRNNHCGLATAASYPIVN
Give your result in µM as a bare value.

Q: # get_value(readout='IC50', item= CCCC[C@H](NC(=O)[C@H](CC(C)C)NC(=O)OCC1CCCCC1)C(O)c1cc1=O (stereo partly drawn) )
A: 0.54

Q: # get_value(readout='IC50', item= CC(C)C[C@H](NC(=O)OCC1CCCCC1)C(=O)N[C@@H](C(C)C)[C@@H](O)c1c(-c2ccccc2)c1=O )
A: 0.00086

Q: # get_value(readout='IC50', item= CCCC[C@H](NC(=O)[C@H](CC(C)C)NC(=O)OCc1ccccc1)C(O)c1c(-c2ccccc2)c1=O (stereo partly drawn) )
A: 1.27

====

target: papain (Carica papaya); assay: Thiol protease inhibitory activity against papain (P-3125, Sigma); assay type: biochemical; details: Table 3; read-out: IC50 (μM) papain
Sequence (P00784 134-345): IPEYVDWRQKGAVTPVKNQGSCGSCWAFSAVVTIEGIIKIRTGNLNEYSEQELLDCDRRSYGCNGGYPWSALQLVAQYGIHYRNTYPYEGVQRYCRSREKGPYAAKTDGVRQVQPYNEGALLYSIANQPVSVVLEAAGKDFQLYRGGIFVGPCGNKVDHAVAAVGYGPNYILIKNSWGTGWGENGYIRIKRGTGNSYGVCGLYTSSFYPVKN
Measurement Kind: IC50 (µM)
Give your result in µM as a bare value.

Q: # get_value(readout='IC50', item= CCCC[C@H](NC(=O)[C@H](CC(C)C)NC(=O)OCc1ccccc1)C(O)c1cc1=O (some centres unmarked) )
A: 0.14

Q: # get_value(readout='IC50', item= CC(C)C[C@H](NC(=O)OCc1ccccc1)C(=O)N[C@@H](C(C)C)C(O)c1c(-c2ccccc2)c1=O (some centres unmarked) )
A: 4.2

Q: # get_value(readout='IC50', item= CC(C)C[C@H](NC(=O)OCc1ccccc1)C(=O)N[C@@H](C(C)C)[C@@H](O)c1c(-c2ccccc2)c1=O )
A: 13

Q: # get_value(readout='IC50', item= CC(C)C[C@H](NC(=O)OCC1CCCCC1)C(=O)N[C@@H](C(C)C)[C@H](O)c1c(-c2ccccc2)c1=O )
A: 22

====

target: cathepsin L (Rattus norvegicus); construct: Capthesin L was purified from rat kidney; from tissue; host or cells: rat kidney; assay: Thiol protease inhibitory activity against cathepsin L purified from rat kidney; assay type: biochemical; details: Table 3; rat kidney enzyme; read-out: IC50 (μM) cathepsin L
Measurement Kind: IC50 (µM)
Give your result in µM as a bare value.

Q: # get_value(readout='IC50', item= CC(C)C[C@H](NC(=O)OCc1ccccc1)C(=O)N[C@@H](CC(C)C)C(O)c1cc1=O (stereo partly shown) )
A: 0.75

Q: # get_value(readout='IC50', item= CCCC[C@H](NC(=O)[C@H](CC(C)C)NC(=O)OCC1CCCCC1)C(O)c1c(-c2ccccc2)c1=O (stereo partly shown) )
A: 0.062

Q: # get_value(readout='IC50', item= CCCC[C@H](NC(=O)[C@H](CC(C)C)NC(=O)OCc1ccccc1)C(O)c1cc1=O (stereo partly shown) )
A: 0.24

Q: # get_value(readout='IC50', item= CC(C)C[C@H](NC(=O)OCc1ccccc1)C(=O)N[C@@H](C(C)C)[C@@H](O)c1c(-c2ccccc2)c1=O )
A: 5.7

Q: # get_value(readout='IC50', item= CCCC[C@H](NC(=O)[C@H](CC(C)C)NC(=O)OCc1ccccn1)C(O)c1c(-c2ccccc2)c1=O (stereo partly shown) )
A: 4.6

Q: # get_value(readout='IC50', item= CC(C)C[C@H](NC(=O)OCc1ccccc1)C(=O)N[C@@H](C(C)C)C(O)c1c(-c2ccccc2)c1=O (stereo partly shown) )
A: 5.8

Q: # get_value(readout='IC50', item= CC(C)C[C@H](NC(=O)OCC1CCCCC1)C(=O)N[C@@H](C(C)C)[C@H](O)c1c(-c2ccccc2)c1=O )
A: 0.0012

====

target: m-calpain (Rattus norvegicus, UniProt Q07009); construct: m-calpain was purified from rat brain; from tissue; host or cells: rat brain; test: Thiol protease inhibitory activity against m-calpain purified from rat brain; assay type: biochemical; details: Table 4; rat brain enzyme; read-out: Inhibitory activity against m-calpain IC50
Sequence (Q07009 20-700 limits assumed): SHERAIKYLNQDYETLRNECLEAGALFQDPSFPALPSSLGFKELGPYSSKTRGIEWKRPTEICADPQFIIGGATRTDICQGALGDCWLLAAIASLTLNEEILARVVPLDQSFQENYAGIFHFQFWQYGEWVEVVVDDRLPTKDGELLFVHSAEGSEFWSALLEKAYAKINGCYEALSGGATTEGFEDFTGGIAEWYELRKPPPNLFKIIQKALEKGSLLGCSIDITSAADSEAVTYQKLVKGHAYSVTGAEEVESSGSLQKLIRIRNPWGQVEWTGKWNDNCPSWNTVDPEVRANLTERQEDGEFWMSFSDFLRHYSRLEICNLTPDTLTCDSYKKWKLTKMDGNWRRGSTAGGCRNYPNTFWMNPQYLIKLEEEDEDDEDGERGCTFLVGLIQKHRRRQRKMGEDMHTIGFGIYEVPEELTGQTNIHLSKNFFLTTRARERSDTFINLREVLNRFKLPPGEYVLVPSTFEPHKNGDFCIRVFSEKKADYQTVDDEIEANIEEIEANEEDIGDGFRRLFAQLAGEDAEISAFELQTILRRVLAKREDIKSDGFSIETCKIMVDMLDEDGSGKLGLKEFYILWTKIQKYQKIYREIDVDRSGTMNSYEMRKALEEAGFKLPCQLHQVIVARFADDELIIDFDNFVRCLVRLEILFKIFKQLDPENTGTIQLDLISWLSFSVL
Sequence (Q64537 whole entry partner): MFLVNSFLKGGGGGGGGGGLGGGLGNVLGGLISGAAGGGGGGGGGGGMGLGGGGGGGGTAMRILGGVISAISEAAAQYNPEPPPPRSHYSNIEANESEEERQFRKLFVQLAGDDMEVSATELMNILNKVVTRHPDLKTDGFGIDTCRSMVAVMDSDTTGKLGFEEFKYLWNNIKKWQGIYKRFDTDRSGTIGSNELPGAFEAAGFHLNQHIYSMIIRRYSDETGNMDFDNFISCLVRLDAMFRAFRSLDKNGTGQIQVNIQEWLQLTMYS
Structures can show the parent of a compound that is named as a salt.
Measurement Kind: IC50
Could you write the number and then its unit?

Q: # get_value(readout='IC50', item= Cc1cc(C(=O)N[C@@H](CC(C)C)C(=O)N[C@@H](C(C)C)[C@@H](O)c2c(-c3ccccc3)c2=O)n(C)n1 )
A: 3000 nM

Q: # get_value(readout='IC50', item= CC(C)C[C@H](NC(=O)COc1ccccc1)C(=O)N[C@@H](C(C)C)[C@@H](O)c1c(-c2ccccc2)c1=O )
A: 630 nM

Q: # get_value(readout='IC50', item= CCCC[C@H](NC(=O)[C@H](CC(C)C)NC(=O)OCc1ccccc1)C(O)c1c(-c2ccc(F)cc2)c1=O (some centres unmarked) )
A: 4300 nM

Q: # get_value(readout='IC50', item= CCCCCCCCCCCC(=O)N[C@@H](CC(C)C)C(=O)N[C@@H](C(C)C)[C@@H](O)c1c(-c2ccccc2)c1=O )
A: 4000 nM

Q: # get_value(readout='IC50', item= CC(C)C[C@H](NC(=O)OCc1ccncc1)C(=O)N[C@@H](C(C)C)[C@H](O)c1c(-c2ccccc2)c1=O [32 (No. 99), hydrochloride] )
A: 1200 nM

Q: # get_value(readout='IC50', item= CC(C)C[C@H](NC(=O)c1ccnc(Cl)c1)C(=O)N[C@@H](C(C)C)[C@@H](O)c1c(-c2ccccc2)c1=O )
A: 1400 nM

Q: # get_value(readout='IC50', item= Cc1ccc(S(=O)(=O)N[C@@H](CC(C)C)C(=O)N[C@@H](C(C)C)[C@@H](O)c2c(-c3ccccc3)c2=O)cc1 )
A: 750 nM

Q: # get_value(readout='IC50', item= CC(C)C[C@H](NC(=O)c1cccnc1)C(=O)N[C@@H](C(C)C)[C@@H](O)c1c(-c2ccccc2)c1=O )
A: 1300 nM

Q: # get_value(readout='IC50', item= CC(C)C[C@H](NS(=O)(=O)c1ccccc1)C(=O)N[C@@H](C(C)C)[C@@H](O)c1c(-c2ccc(F)cc2)c1=O )
A: 2900 nM

Q: # get_value(readout='IC50', item= CC(C)C[C@H](NC(=O)CCS(=O)(=O)c1ccccc1)C(=O)N[C@@H](C(C)C)[C@@H](O)c1c(-c2ccccc2)c1=O )
A: 3100 nM

Q: # get_value(readout='IC50', item= CC(C)C[C@H](NC(=O)c1ccc(Cl)cc1)C(=O)N[C@@H](C(C)C)[C@@H](O)c1c(-c2ccccc2)c1=O )
A: 1400 nM

====

target: cathepsin B (Bos taurus); construct: purchased Sigma C-6286; experiment: Thiol protease inhibitory activity against cathepsin B (C-6286, Sigma); type: biochemical; conditions: Table 3; read-out: IC50 (μM) cathepsin B
Give measured log10(IC50) for each item. Keep answers brief.
Note: values are log10 of IC50 expressed in µM.

Q: # get_value(readout='log10(IC50)', item= CCCC[C@H](NC(=O)[C@H](CC(C)C)NC(=O)OCc1ccccc1)C(O)c1c(-c2ccccc2)c1=O (some centres unmarked) )
A: 1.04

Q: # get_value(readout='log10(IC50)', item= CCCC[C@H](NC(=O)[C@H](CC(C)C)NC(=O)OCC1CCCCC1)C(O)c1c(-c2ccccc2)c1=O (some centres unmarked) )
A: 0.00

Q: # get_value(readout='log10(IC50)', item= CC(C)C[C@H](NC(=O)OCc1ccccc1)C(=O)N[C@@H](C(C)C)C(O)c1c(-c2ccccc2)c1=O (some centres unmarked) )
A: 1.63

Q: # get_value(readout='log10(IC50)', item= CCCC[C@H](NC(=O)[C@H](CC(C)C)NC(=O)OCc1ccccn1)C(O)c1c(-c2ccccc2)c1=O (some centres unmarked) )
A: 1.45

Q: # get_value(readout='log10(IC50)', item= CC(C)C[C@H](NC(=O)OCC1CCCCC1)C(=O)N[C@@H](C(C)C)[C@@H](O)c1c(-c2ccccc2)c1=O )
A: -0.15

Q: # get_value(readout='log10(IC50)', item= CCCC[C@H](NC(=O)[C@H](CC(C)C)NC(=O)OCC1CCCCC1)C(O)c1cc1=O (some centres unmarked) )
A: -0.80

Q: # get_value(readout='log10(IC50)', item= CC(C)C[C@H](NC(=O)OCC1CCCCC1)C(=O)N[C@@H](C(C)C)[C@H](O)c1c(-c2ccccc2)c1=O )
A: -1.36

Q: # get_value(readout='log10(IC50)', item= CCCC[C@H](NC(=O)[C@H](CC(C)C)NC(=O)OCc1ccccc1)C(O)c1cc1=O (some centres unmarked) )
A: -0.49

Q: # get_value(readout='log10(IC50)', item= CC(C)C[C@H](NC(=O)OCC1CCCCC1)C(=O)N[C@@H](C(C)C)C(O)c1cc1=O (some centres unmarked) )
A: -0.39

Q: # get_value(readout='log10(IC50)', item= CC(C)C[C@H](NC(=O)OCc1ccccc1)C(=O)N[C@@H](CC(C)C)C(O)c1cc1=O (some centres unmarked) )
A: 0.48

Q: # get_value(readout='log10(IC50)', item= CC(C)C[C@H](NC(=O)OCc1ccccc1)C(=O)N[C@@H](C(C)C)[C@@H](O)c1c(-c2ccccc2)c1=O )
A: 1.51
